test: Plasma protein binding in human; type: ADME, cell-free; conditions: read-out: PPB (converted)
Measurement label: fraction unbound
Hey, just send me the number, nothing else.

Write down fraction unbound measured for item O=S1(=O)CCC(Oc2ccc3c(c2)CCC2(CCN(C4CCC4)CC2)O3)CC1 0.23

###

target: Cytochrome P450 2D6 (Homo sapiens, UniProt P10635)
Sequence (P10635 whole entry): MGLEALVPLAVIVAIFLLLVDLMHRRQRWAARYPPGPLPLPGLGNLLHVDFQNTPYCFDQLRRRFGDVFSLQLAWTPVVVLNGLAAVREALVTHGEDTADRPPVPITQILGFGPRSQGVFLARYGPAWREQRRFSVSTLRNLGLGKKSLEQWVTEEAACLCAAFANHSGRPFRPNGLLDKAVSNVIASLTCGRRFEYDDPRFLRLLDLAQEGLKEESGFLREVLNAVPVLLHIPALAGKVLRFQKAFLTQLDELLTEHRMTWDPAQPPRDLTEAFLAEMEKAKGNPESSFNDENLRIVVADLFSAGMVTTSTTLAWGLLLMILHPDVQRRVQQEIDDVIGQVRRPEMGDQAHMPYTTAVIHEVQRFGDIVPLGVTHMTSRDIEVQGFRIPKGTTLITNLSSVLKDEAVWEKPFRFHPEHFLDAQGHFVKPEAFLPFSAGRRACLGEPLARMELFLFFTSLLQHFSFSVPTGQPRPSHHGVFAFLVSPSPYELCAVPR
Measurement label: pIC50
By convention, pIC50 is the negative base-10 log of a molar concentration.

Look up pIC50 of O=S1(=O)CCC(Oc2ccc3c(c2)CCC2(CCN(C4CCC4)CC2)O3)CC1 and report it. 5.18

###

target: Histamine H3 receptor (Homo sapiens)
Sequence (Q9Y5N1 whole entry): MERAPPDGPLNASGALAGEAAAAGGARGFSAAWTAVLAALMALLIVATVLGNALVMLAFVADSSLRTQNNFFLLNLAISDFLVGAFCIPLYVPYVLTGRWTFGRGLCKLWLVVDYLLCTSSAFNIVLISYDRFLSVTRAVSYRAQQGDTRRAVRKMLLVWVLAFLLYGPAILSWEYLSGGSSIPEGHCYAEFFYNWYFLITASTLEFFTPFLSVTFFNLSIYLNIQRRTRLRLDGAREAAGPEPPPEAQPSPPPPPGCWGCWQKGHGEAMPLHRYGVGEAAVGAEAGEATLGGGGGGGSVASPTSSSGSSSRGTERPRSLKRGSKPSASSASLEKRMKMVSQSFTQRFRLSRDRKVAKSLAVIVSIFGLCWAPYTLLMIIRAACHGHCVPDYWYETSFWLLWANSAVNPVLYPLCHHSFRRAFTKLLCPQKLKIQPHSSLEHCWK
Measurement label: pKi
pKi here: minus log base 10 of the concentration, concentration in moles per litre.

Some molecules with recorded pKi:
[
  {
    "Smiles str": "CC[C@@H](O)COc1ccc2c(c1)CCC1(CCN(C3CCC3)CC1)O2",
    "Measured on": "Histamine H3 receptor (Homo sapiens)",
    "Reported": 7.82
  },
  {
    "Smiles str": "CC(C)(O)COc1ccc2c(c1)CCC1(CCN(C3CCC3)CC1)O2",
    "Measured on": "Histamine H3 receptor (Homo sapiens)",
    "Reported": 7.74
  }
]

Now consider a different molecule.
Provide Histamine H3 receptor (Homo sapiens) pKi reading for CS(=O)(=O)CCOc1ccc2c(c1)CCC1(CCN(C3CCC3)CC1)O2 . 7.41
